# Test system: NCI/ADR-RES ovarian
# test-details: NCI tumour cell line growth inhibition, 48 h
Reported GI50 by item:
parameter: GI50

chemical_structure=COc1ccc(-c2oc3ncnc(N)c3c2-c2ccc(NC(=O)Nc3cc(C(F)(F)F)ccc3F)cc2)cc1 recorded_value="1170 nM"
chemical_structure=Cn1cc(-c2ncnc3ccc(-c4cnc(Cl)c(NS(C)(=O)=O)c4)cc23)c2ccccc21 recorded_value="1240 nM"
chemical_structure=CCCCNC(=O)Oc1ccc(/C(=C(\C)c2ccc(OC)cc2)c2ccc(OCCN3CCCCC3)cc2)cc1 recorded_value="3670 nM"
chemical_structure=Oc1c(CN2CCCCC2)ccc2cccnc12 recorded_value="955 nM"
chemical_structure=O=C1NN(C(=O)c2ccccc2)C(c2ccc(Cl)c(Cl)c2)=C/C1=C\c1ccccc1[N+](=O)[O-] recorded_value="2290 nM"
chemical_structure=C#Cc1cccc(Nc2nc(C)nc3cc(NC(=O)CCl)ccc23)c1 recorded_value="3420 nM"
chemical_structure=CC(=O)CCc1ccc(Oc2c3ccccc3nc3occc23)cc1 recorded_value="15400 nM"
chemical_structure=COc1ccc(-c2c(NC(=O)Nc3ccc(Cl)c(C(F)(F)F)c3)cnn2-c2ccc(S(N)(=O)=O)cc2)cc1 recorded_value="24700 nM"

---

# Tested on: KM12 colon
# test-details: NCI tumour cell line growth inhibition, 48 h
parameter: log10 of TGI (log10 of the value in µM)

molecule=N[C@@H](Cc1c[nH]c2ccccc12)C(=O)NC1CCN(Cc2c[nH]c3ccc(Cl)cc23)CC1 recorded_value=1.23
molecule="Cc1cc(-c2nc3ccc(F)cc3s2)ccc1NC(=O)C(N)CCCCN (stereo not given)" recorded_value=0.69
molecule=Cc1c(C)c(S(=O)(=O)N(CCCN)OCCCN)c(C)c2c1OC(C)(C)CC2 recorded_value=1.41
molecule=CCN(CC)CCOCCOCC1(c2ccc(Cl)c(Cl)c2)CCCCC1 recorded_value=1.24
molecule=O=C(N/N=C/c1ccc([N+](=O)[O-])cc1)c1ccccc1Nc1ccnc(C(F)(F)F)c1 recorded_value=1.74
molecule=NC(CCl)=NCC12CC3CC(CC(C3)C1)C2 recorded_value=0.54

---

# Test system: SNB-75 CNS
# test-details: NCI tumour cell line growth inhibition, 48 h
Reported TGI by item:
parameter: TGI (µM)

compound=N#CC1(C#N)C(=O)c2ccncc2C1=O parameter=TGI display_unit=µM value_prefix=> recorded_value=100
compound=O=C(O)CN1CCN2CCCCCCCCN(CC1)CCN(CC(=O)O)CC2 parameter=TGI display_unit=µM value_prefix=> recorded_value=100
compound=COc1ccc2c(c1)/C(=C\c1c(-c3ccccc3)nc3sccn13)C(=O)N2 parameter=TGI display_unit=µM value_prefix== recorded_value=23.5
compound="COc1nc2ccc(Cl)c(C(O)c3ccccc3)c2nc1OC (stereo unspecified)" parameter=TGI display_unit=µM value_prefix=> recorded_value=100
compound="Cc1cn(CCCCOC(=O)NC(CCCN=C(N)N)C(=O)O)c(=O)[nH]c1=O (stereo unspecified)" parameter=TGI display_unit=µM value_prefix=> recorded_value=100
compound="COc1cccc(C2SC(C)C(=O)N2NC(=O)C(O)c2ccccc2)c1 (stereo unspecified)" parameter=TGI display_unit=µM value_prefix=> recorded_value=100
compound="COc1c(O)cc2c(c1O)C(=O)C(Cc1ccc(O)cc1)CO2 (stereo unspecified)" parameter=TGI display_unit=µM value_prefix== recorded_value=91.9
compound=N[C@@H](Cc1c[nH]c2ccccc12)C(=O)NC1CCN(Cc2c[nH]c3ccc(Cl)cc23)CC1 parameter=TGI display_unit=µM value_prefix== recorded_value=29.1
compound="CC(C)(C)OC(=O)NC(Cc1ccccc1)C(=S)N1CCCC1 (stereo unspecified)" parameter=TGI display_unit=µM value_prefix=> recorded_value=100
compound="CC1=C(C(=O)O)N2C(=O)[C@@H](NC(=O)C(c3ccccc3)N3CSC(=S)N(C(C)C)C3)C2SC1 (stereo partly specified)" parameter=TGI display_unit=µM value_prefix=> recorded_value=100
compound="CCC(CO)Nc1nc(NCc2ccccc2)c2n[nH]c(C(C)C)c2n1 (stereo unspecified)" parameter=TGI display_unit=µM value_prefix== recorded_value=25.4
compound=O=C(NC1CCCCC1)NC12CC3CC(CC(F)(C3)C1)C2 parameter=TGI display_unit=µM value_prefix=> recorded_value=100
compound="COC(=O)[C@H](Cc1ccccc1)NC(=O)OCC1OC(n2cc(C)c(=O)[nH]c2=O)CC1N=[N+]=[N-] (stereo partly specified)" parameter=TGI display_unit=µM value_prefix=> recorded_value=100
compound=Oc1ccc(O)c(-n2cccn2)c1 parameter=TGI display_unit=µM value_prefix=> recorded_value=100
compound="COc1nc2c(c(=O)[nH]1)N=C(c1ccccc1)CC(c1ccccc1)N2 (stereo unspecified)" parameter=TGI display_unit=µM value_prefix== recorded_value=52.5
compound=O=C(CSc1nc2ccc(I)cc2c(=O)n1Cc1ccccc1)NNC(=S)Nc1ccccc1 parameter=TGI display_unit=µM value_prefix=> recorded_value=100
compound=COc1ccc(C2=NN(C(C)=O)c3nc4ccccc4nc3O2)cc1 parameter=TGI display_unit=µM value_prefix== recorded_value=21.7
compound=O=C1/C(=C/c2ccc(Cl)cc2)N=C(c2ccccc2)N1c1cc(C(F)(F)F)ccc1Cl parameter=TGI display_unit=µM value_prefix== recorded_value=78.7
compound="Cc1ccc(S(=O)(=O)NC(Cc2ccccc2)C(=O)CCl)cc1 (stereo unspecified)" parameter=TGI display_unit=µM value_prefix== recorded_value=28
compound=CCCCCCCCCCCCCCCCCC1=NC(C)(C)CN1C(C)(C)CO parameter=TGI display_unit=µM value_prefix== recorded_value=3.13
compound="C=C1C2CC(OC(C)=O)C3(C)C(c4ccoc4)OC(=O)[C@@H](O)[C@]13OC1C[C@H](OC(C)=O)C(C)(C)[C@H](C(O)C(=O)OC)[C@]12C (stereo partly specified)" parameter=TGI display_unit=µM value_prefix=> recorded_value=100

---

Reported TGI by item:
# Tested on: UO-31 renal
# test-details: NCI tumour cell line growth inhibition, 48 h
parameter: TGI

compound=CC1(C)CC[C@]2(C(=O)NCCNCCN)CC[C@]3(C)C(=CC[C@@H]4[C@@]5(C)CCC(=O)C(C)(C)[C@@H]5CC[C@]43C)[C@@H]2C1 recorded_value="3.06 µM"
compound=CCOC(=O)c1ccc(NCc2ccc3nc(OC)c(OC)nc3c2)cc1 recorded_value="> 100 µM"
compound=[Mn+3].[O-][Cl+3]([O-])([O-])O.[O-]c1ccccc1C=NCCN1CC1.[O-]c1ccccc1C=NCCN1CC1 recorded_value="> 100 µM"
compound=CC1(C)C(CBr)=[N+]([O-])C(C)(C)N1O recorded_value="> 10 µM"
compound="Cc1ccccc1SC(/C=C/NNC1=NC(c2ccccc2)C(c2ccccc2)=NN1)c1ccccc1 (stereo not given)" recorded_value="48.6 µM"
compound="C=CCC1(CN(C)C)CC/C(=C\\c2cc(OC)c(OC)c(OC)c2)C1=O (stereo not given)" recorded_value="77 µM"
compound=CCOC(=O)C(=CNc1ccc(S(N)(=O)=O)cc1)C(=O)OCC recorded_value="> 100 µM"
compound=O=C(/C=C/c1ccc(-c2ccccc2)cc1)c1ccccc1 recorded_value="> 100 µM"
compound="C=CCN=C1NC(=O)C(CC(=O)Nc2cccc(Cl)c2)S1 (stereo not given)" recorded_value="> 100 µM"
compound=CN1CCN(c2ccncc2S(=O)(=O)N2CCN(C)CC2)CC1 recorded_value="> 100 µM"

---

Reported TGI by item:
# Tested on: IGROV1 ovarian
# test-details: NCI tumour cell line growth inhibition, 48 h
parameter: TGI

compound=C[C@H](CCC(=O)O)[C@H]1CC[C@H]2[C@@H]3[C@@H](O)C[C@@H]4C[C@H](O)CC[C@]4(C)[C@H]3C[C@H](O)[C@]12C measured_on="IGROV1 ovarian" recorded_value="> 100 µM"
compound=COc1ccc(Cc2ccc3[nH]c(=O)cc(C)c3c2)cc1S(=O)(=O)O measured_on="IGROV1 ovarian" recorded_value="> 100 µM"
compound=Cc1ccc([N+](=O)[O-])cc1NC(=O)C(=O)Cc1nc2ccc(C(=O)c3ccccc3)cc2[nH]c1=O measured_on="IGROV1 ovarian" recorded_value="> 100 µM"
compound=N#Cc1ccc2[nH]cc(Cc3c[nH]c4ccc(C#N)cc34)c2c1 measured_on="IGROV1 ovarian" recorded_value="35.7 µM"
compound=N[C@@H](Cc1c[nH]c2ccccc12)C(=O)NC1CCN(Cc2c[nH]c3ccc(Cl)cc23)CC1 measured_on="IGROV1 ovarian" recorded_value="23.4 µM"
compound="C=CCN=C1NC(=O)C(CC(=O)Nc2cccc(Cl)c2)S1 (configuration not stated)" measured_on="IGROV1 ovarian" recorded_value="> 100 µM"
compound=O=c1oc2ccc(F)cc2c(=O)n1-c1ccc(I)cc1F measured_on="IGROV1 ovarian" recorded_value="15.6 µM"
compound=COC(=O)CCCCCOS(=O)(=O)c1ccc(C)cc1 measured_on="IGROV1 ovarian" recorded_value="> 100 µM"
compound=CC1(C)CC[C@]2(C)[C@@H](O)C[C@]3(C)C(=CC[C@@H]4[C@@]5(C)CC[C@H](O)C(C)(C)[C@@H]5CC[C@]43C)[C@@H]2C1 measured_on="IGROV1 ovarian" recorded_value="> 100 µM"
compound="COc1c(O)cc2c(c1O)C(=O)C(Cc1ccc(O)cc1)CO2 (configuration not stated)" measured_on="IGROV1 ovarian" recorded_value="> 100 µM"
compound="Nc1ccc2nc3n(c2c1)C(c1c(F)cccc1F)SC3 (configuration not stated)" measured_on="IGROV1 ovarian" recorded_value="> 100 µM"
compound=CN1/C(=C\N=O)C(C)(C)N(O)C1(C)C measured_on="IGROV1 ovarian" recorded_value="> 100 µM"
compound="CC1=C(O)C(=O)C2C(=O)C1C(C)C2c1ccccc1 (configuration not stated)" measured_on="IGROV1 ovarian" recorded_value="> 100 µM"
compound=Cc1ccc(NC(=O)C(=O)C2C(=O)NC(=O)NC2=O)c(C)c1 measured_on="IGROV1 ovarian" recorded_value="> 100 µM"
compound=NC(CCl)=NCC12CC3CC(CC(C3)C1)C2 measured_on="IGROV1 ovarian" recorded_value="31.7 µM"
compound="C=CCC1(CN(C)C)CC/C(=C\\c2cc(OC)c(OC)c(OC)c2)C1=O (configuration not stated)" measured_on="IGROV1 ovarian" recorded_value="74.6 µM"
compound="O=C(O)C(Cc1ccccc1)N=Cc1nc(-c2ccccc2)oc1O (configuration not stated)" measured_on="IGROV1 ovarian" recorded_value="> 100 µM"
compound="CCC(CO)Nc1nc(NCc2ccccc2)c2n[nH]c(C(C)C)c2n1 (configuration not stated)" measured_on="IGROV1 ovarian" recorded_value="25.6 µM"
compound=COc1ccc(/C=C/c2cc(OC)c(OC)c(OC)c2)cc1OC measured_on="IGROV1 ovarian" recorded_value="> 100 µM"
compound=C#Cc1cccc(Nc2nc(C)nc3cc(NC(=O)CCl)ccc23)c1 measured_on="IGROV1 ovarian" recorded_value="1.37 µM"
compound=COc1ccc(OC)c(-c2cc(-c3ccc(Cl)cc3)nn2-c2ccccc2)c1 measured_on="IGROV1 ovarian" recorded_value="> 100 µM"
compound=CCCC(=O)Oc1ccc(/C=N/NC(N)=S)nc1 measured_on="IGROV1 ovarian" recorded_value="> 100 µM"
compound=O=c1cccccc1O measured_on="IGROV1 ovarian" recorded_value="> 100 µM"
compound=O=c1c2ccccc2ncn1COCc1ccccc1 measured_on="IGROV1 ovarian" recorded_value="> 100 µM"
compound=Nc1nncc2n[nH]nc12 measured_on="IGROV1 ovarian" recorded_value="> 100 µM"
compound="N#CC12CC(C=O)=C(N)C1(C#N)CC(C=O)=C2N (configuration not stated)" measured_on="IGROV1 ovarian" recorded_value="> 100 µM"
compound=O=S(=O)(O)c1ccc(N=Nc2ccc(N=Nc3c(O)ccc4ccc(S(=O)(=O)O)cc34)cc2)cc1 measured_on="IGROV1 ovarian" recorded_value="> 100 µM"

Values were extracted from PubChem BioAssay (NCI).
